# Tested on: KB
# testName: Cytotoxicity against human KB cells by sulforhodamine B method
# Assay type: functional
Form field: GI50 (one value per entry).
Quick note: give the figure in nM, leave out the unit.

These recorded examples may help you get a feel for the data.
{"chemicalStructure": "COc1cc2c(cc1OCCCCCN1CCN(CCCCCOc3ccc4c(c3)CC[C@@H]3[C@@H]4CC[C@]4(C)[C@@H](O)CC[C@@H]34)CC1)N=C[C@@H]1C[C@@H](F)CN1C2=O", "outcomeMeasure": "GI50", "result": 140}
{"chemicalStructure": "COc1cc2c(cc1OCCCCCOc1ccc3c(c1)CC[C@@H]1[C@@H]3CC[C@]3(C)[C@@H](O)CC[C@@H]13)N=C[C@@H]1CCCN1C2=O", "outcomeMeasure": "GI50", "result": 2130}

// GI50 value for COc1cc2c(cc1OCCCCCN1CCN(CCCCCOc3ccc4c(c3)CC[C@@H]3[C@@H]4CC[C@]4(C)[C@@H](O)CC[C@@H]34)CC1)N=C[C@@H]1CCCN1C2=O : 190

// GI50 value for COc1cc2c(cc1OCc1cn(CCCOc3ccc4c(c3)CC[C@@H]3[C@@H]4CC[C@]4(C)[C@@H](O)CC[C@@H]34)nn1)N=C[C@@H]1CCCN1C2=O : 310

###

# Tested on: ZR-75-1
# testName: Cytotoxicity against human ZR-75-1 cells by sulforhodamine B method
# Assay type: functional
Form field: GI50 (one value per entry).

// GI50 value for COc1cc2c(cc1OCCCN1CCN(CCCOc3ccc4c(c3)CC[C@@H]3[C@@H]4CC[C@]4(C)[C@@H](O)CC[C@@H]34)CC1)N=C[C@@H]1C[C@@H](F)CN1C2=O : < 100 nM

// GI50 value for COc1cc2c(cc1OCc1cn(CCCCCOc3ccc4c(c3)CC[C@@H]3[C@@H]4CC[C@]4(C)[C@@H](O)CC[C@@H]34)nn1)N=C[C@@H]1C[C@@H](F)CN1C2=O : < 100 nM

// GI50 value for COc1cc2c(cc1OCc1cn(CCCOc3ccc4c(c3)CC[C@@H]3[C@@H]4CC[C@]4(C)[C@@H](O)CC[C@@H]34)nn1)N=C[C@@H]1C[C@@H](F)CN1C2=O : < 100 nM
